Please provide measured Binding affinity for the entries that follow.
Target: acetylcholine receptor (Homo sapiens)
Sequence (P02708 21-457): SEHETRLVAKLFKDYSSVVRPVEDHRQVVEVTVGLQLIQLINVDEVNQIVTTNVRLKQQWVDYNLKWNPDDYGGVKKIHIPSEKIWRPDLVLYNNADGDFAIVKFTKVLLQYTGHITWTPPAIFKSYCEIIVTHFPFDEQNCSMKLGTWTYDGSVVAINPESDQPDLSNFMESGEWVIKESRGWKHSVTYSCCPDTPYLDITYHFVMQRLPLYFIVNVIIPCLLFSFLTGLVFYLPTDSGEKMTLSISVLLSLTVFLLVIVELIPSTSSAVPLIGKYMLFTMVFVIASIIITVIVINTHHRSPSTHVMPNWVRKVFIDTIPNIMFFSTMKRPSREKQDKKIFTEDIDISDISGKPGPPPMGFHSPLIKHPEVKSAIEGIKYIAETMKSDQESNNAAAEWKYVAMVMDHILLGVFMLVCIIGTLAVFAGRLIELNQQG
Experiment: SPR binding affinity (RU) of optimized 5mer/6mer/7mer peptides, Examples 6-7
Conditions: SPR, peptides at 10 μM; 6mer-2 Bottom sequence
Give the quantity in Ru, number only.

Annotate the substance 6mer-2-1015 (RDEMKR) with its measured Binding affinity.
29

Annotate the substance 6mer-2-1058 (RMPWKK) with its measured Binding affinity.
24

Annotate the substance 6mer-2-1073 (KYSWRK) with its measured Binding affinity.
24

Annotate the substance 6mer-2-1124 (RKTWRK) with its measured Binding affinity.
39

Annotate the substance 6mer-2-1106 (KDKVKR) with its measured Binding affinity.
28

Annotate the substance 6mer-2-1019 (RNTWKK) with its measured Binding affinity.
23

Annotate the substance 6mer-2-1035 (RPPVKK) with its measured Binding affinity.
39

Annotate the substance 6mer-2-1008 (RAWKKR) with its measured Binding affinity.
38

Annotate the substance 6mer-2-1095 (KYSMRR) with its measured Binding affinity.
39

Annotate the substance 6mer-2-1186 (KEKFRR) with its measured Binding affinity.
27

Annotate the substance 6mer-2-1079 (KCNEKK) with its measured Binding affinity.
40

Annotate the substance 6mer-2-1144 (RFEDRK) with its measured Binding affinity.
39

Annotate the substance 6mer-2-1028 (KPEHRR) with its measured Binding affinity.
41

Annotate the substance 6mer-2-1037 (KIHWKK) with its measured Binding affinity.
26

Annotate the substance 6mer-2-1070 (RPHVRR) with its measured Binding affinity.
31

Annotate the substance 6mer-2-1097 (RFWEKK) with its measured Binding affinity.
23

Annotate the substance 6mer-2-1143 (KACIKK) with its measured Binding affinity.
42

Annotate the substance 6mer-2-1184 (KFWVRR) with its measured Binding affinity.
22

Annotate the substance 6mer-2-1096 (RANVKR) with its measured Binding affinity.
39

Annotate the substance 6mer-2-1051 (RKHMRR) with its measured Binding affinity.
24

Annotate the substance 6mer-2-1118 (RFDGRR) with its measured Binding affinity.
42

Annotate the substance 6mer-2-1077 (KMTIKK) with its measured Binding affinity.
34

Annotate the substance 6mer-2-1146 (REWGRK) with its measured Binding affinity.
32

Annotate the substance 6mer-2-1166 (KCSIKK) with its measured Binding affinity.
26

Annotate the substance 6mer-2-1036 (KAKNKR) with its measured Binding affinity.
25

Annotate the substance 6mer-2-1006 (RATMRR) with its measured Binding affinity.
30

Annotate the substance 6mer-2-1054 (KKNKKR) with its measured Binding affinity.
43

Annotate the substance 6mer-2-1047 (RHDDKR) with its measured Binding affinity.
28

Annotate the substance 6mer-2-1064 (RCMKRR) with its measured Binding affinity.
39

Annotate the substance 6mer-2-1024 (RFHNKR) with its measured Binding affinity.
37

Annotate the substance 6mer-2-1117 (RMHVKR) with its measured Binding affinity.
21

Annotate the substance 6mer-2-1155 (RNTNRK) with its measured Binding affinity.
25

Annotate the substance 6mer-2-1171 (KMPARR) with its measured Binding affinity.
40

Annotate the substance 6mer-2-1110 (RMTKKK) with its measured Binding affinity.
37
